FYI, the data here is from ChEMBL document CHEMBL4425168.

- System: Mycobacterium tuberculosis
- Protocol text: Antitubercular activity against Mycobacterium tuberculosis H37Rv INH-R2 ATCC 35822 after 5 days
- Type: functional, organism-based
- Reported conditions: Mycobacterium tuberculosis, H37Rv INH-R2 ATCC 35822, 120 h
Measure name: log10(MIC) (log10 of the value in µM)
Heads up, the numbers here are log10 of MIC in µM units.

{"Smiles input": "COc1ccc(/C=C/C(C)=N/Nc2nc(-c3c(OC)cccc3OC)cs2)cc1OC", "Measure name": "log10(MIC)", "Reported result": 1.28}
{"Smiles input": "COc1ccc(/C=C/C(C)=N/Nc2nc(-c3ccc(OC)c(OC)c3)cs2)cc1OC", "Measure name": "log10(MIC)", "Reported result": 1.11}
{"Smiles input": "COc1ccc(-c2csc(N/N=C(C)/C=C/c3ccc(OC)c(OC)c3)n2)cc1", "Measure name": "log10(MIC)", "Reported result": 1.08}

For every item in the list below, what is its measured log10(MIC)?
1. COc1ccc(/C=C/C(C)=N/Nc2nc(-c3ccc(N)cc3)cs2)cc1OC
2. COc1ccc(/C=C/C(C)=N/NC(N)=S)cc1OC

// result
[0.18, 0.40]

====

- System: Mycobacterium tuberculosis
- Protocol text: Antitubercular activity against Mycobacterium tuberculosis H37Rv assessed as bacterial growth inhibition under aerobic conditions after 5 days by dual read-out fluorescence assay
- Assay type: functional, organism-based
- Reported conditions: 120 h
Assignment: determine reported log10(IC50) for the given molecules.
Heads up, the numbers here are log10 of IC50 in µM units.

// solved cases for log10(IC50) follow
{"Smiles input": "COc1ccc(-c2csc(N/N=C(C)/C=C/c3ccc(OC)c(OC)c3)n2)cc1", "log10(IC50)": 0.92}
{"Smiles input": "COc1ccc(/C=C/C(C)=N/Nc2nc(-c3c(OC)cccc3OC)cs2)cc1OC", "log10(IC50)": 0.82}
{"Smiles input": "COc1ccc(/C=C/C(C)=N/Nc2nc(-c3ccccc3O)cs2)cc1OC", "log10(IC50)": 1.38}
{"Smiles input": "COc1ccc(/C=C/C(C)=N/Nc2nc(-c3ccc(OC)c(OC)c3)cs2)cc1OC", "log10(IC50)": 0.87}
{"Smiles input": "COc1ccc(/C=C/C(C)=N/NC(N)=S)cc1OC", "log10(IC50)": -0.01}

Query molecule follows.
// query Param item = `COc1ccc(O)c(-c2csc(N/N=C(C)/C=C/c3ccc(OC)c(OC)c3)n2)c1` ; retrieve measured log10(IC50).
// result 1.36

====

Assignment: determine reported MIC for the given compounds.
- Tested on: Mycobacterium avium
- Protocol text: Antibacterial activity against Mycobacterium avium assessed as reduction in bacterial metabolic activity after 5 days by Alamar blue assay
- Format: functional
- Reported conditions: 120 h

{"Smiles input": "COc1ccc(-c2csc(N/N=C(C)/C=C/c3ccc(OC)c(OC)c3)n2)cc1", "Measure name": "MIC", "Reported result": "> 200 µM"}
{"Smiles input": "COc1ccc(/C=C/C(C)=N/Nc2nc(-c3c(OC)cccc3OC)cs2)cc1OC", "Measure name": "MIC", "Reported result": "> 100 µM"}
{"Smiles input": "COc1ccc(/C=C/C(C)=N/NC(N)=S)cc1OC", "Measure name": "MIC", "Reported result": "> 200 µM"}
{"Smiles input": "CO[C@H]1/C=C/O[C@@]2(C)Oc3c(C)c(O)c4c(O)c(c(/C=N/N5CCN(C)CC5)c(O)c4c3C2=O)NC(=O)/C(C)=C\\C=C\\[C@H](C)[C@H](O)[C@@H](C)[C@@H](O)[C@@H](C)[C@H](OC(C)=O)[C@@H]1C", "Measure name": "MIC", "Reported result": "0.1 µM"}
{"Smiles input": "COc1ccc(/C=C/C(C)=N/Nc2nc(-c3ccc(OC)c(OC)c3)cs2)cc1OC", "Measure name": "MIC", "Reported result": "> 200 µM"}

Query compound follows.
// query Query for Mycobacterium avium: what MIC does the record show for `COc1ccc(/C=C/C(C)=N/Nc2nc(-c3ccc(N)cc3)cs2)cc1OC` ?
// result 100 µM

====

- Test system: Mycobacterium tuberculosis
- Protocol text: Antitubercular activity against Mycobacterium tuberculosis H37Rv expressing luxABCDE infected in differentiated human THP1 cells assessed as reduction in bacteria infected cells after 72 hrs by luminescence assay
- Assay type: functional, organism-based
- Reported conditions: THP-1, 72 h
pIC50: −log10 of the molar value.
Measure name: pIC50

{"Smiles input": "COc1ccc(/C=C/C(C)=N/NC(N)=S)cc1OC", "pIC50": "> 7.01"}

Query compound follows.
// query Param item = `COc1ccc(/C=C/C(C)=N/Nc2nc(-c3ccc(N)cc3)cs2)cc1OC` ; retrieve measured pIC50.
// result > 7.01

====

- System: Mycobacterium tuberculosis
- Protocol text: Antitubercular activity against Mycobacterium tuberculosis H37Rv INH-R2 ATCC 35822 after 5 days
- Type: functional, organism-based
- Reported conditions: Mycobacterium tuberculosis, H37Rv INH-R2 ATCC 35822, 120 h
Assignment: determine reported MIC for the given compounds.
Answers are plain numbers, in µM.

{"Smiles input": "CO[C@H]1/C=C/O[C@@]2(C)Oc3c(C)c(O)c4c(O)c(c(/C=N/N5CCN(C)CC5)c(O)c4c3C2=O)NC(=O)/C(C)=C\\C=C\\[C@H](C)[C@H](O)[C@@H](C)[C@@H](O)[C@@H](C)[C@H](OC(C)=O)[C@@H]1C", "MIC, µM": 0.0065}

Query compound follows.
// query Param item = `C[C@H]1COc2c(N3CCN(C)CC3)c(F)cc3c(=O)c(C(=O)O)cn1c23.C[C@H]1COc2c(N3CCN(C)CC3)c(F)cc3c(=O)c(C(=O)O)cn1c23.O` ; retrieve measured MIC.
// result 1.4

====

- System: Mycobacteroides abscessus
- Protocol text: Antibacterial activity against Mycobacterium abscessus assessed as bacterial growth inhibition after 3 days by MABA method
- Assay type: functional
- Reported conditions: 72 h
Assignment: determine reported MIC for the given compounds.

{"Smiles input": "COc1ccc(/C=C/C(C)=N/Nc2nc(-c3ccc(OC)c(OC)c3)cs2)cc1OC", "Measured target": "Mycobacteroides abscessus", "Reported result": "> 200 µM"}

For every item in the list below, what is its measured MIC?
1. COc1ccc(/C=C/C(C)=N/Nc2nc(-c3c(OC)cccc3OC)cs2)cc1OC
2. COc1ccc(-c2csc(N/N=C(C)/C=C/c3ccc(OC)c(OC)c3)n2)cc1
3. COc1ccc(/C=C/C(C)=N/NC(N)=S)cc1OC

// result
["> 100 µM", "> 200 µM", "> 200 µM"]

====

- Test system: Mycobacterium tuberculosis
- Protocol text: Antitubercular activity against Mycobacterium tuberculosis H37Rv RIF-R2 ATCC 35828 after 5 days
- Assay type: functional, organism-based
- Reported conditions: H37Rv RIF-R2 ATCC 35828, 120 h
Measure name: MIC (µM)
Give bare numbers, in µM.

// solved cases for MIC follow
{"Smiles input": "COc1ccc(/C=C/C(C)=N/Nc2nc(-c3ccc(N)cc3)cs2)cc1OC", "MIC [µM]": 6.3}
{"Smiles input": "C[C@H]1COc2c(N3CCN(C)CC3)c(F)cc3c(=O)c(C(=O)O)cn1c23.C[C@H]1COc2c(N3CCN(C)CC3)c(F)cc3c(=O)c(C(=O)O)cn1c23.O", "MIC [µM]": 1.1}

For every item in the list below, what is its measured MIC?
1. COc1ccc(-c2csc(N/N=C(C)/C=C/c3ccc(OC)c(OC)c3)n2)cc1
2. COc1ccc(/C=C/C(C)=N/NC(N)=S)cc1OC
3. NNC(=O)c1ccncc1
4. COc1ccc(/C=C/C(C)=N/Nc2nc(-c3ccc(OC)c(OC)c3)cs2)cc1OC
5. COc1ccc(/C=C/C(C)=N/Nc2nc(-c3c(OC)cccc3OC)cs2)cc1OC

// result
1: 31; 2: 4.8; 3: 0.62; 4: 46; 5: 41

====

- Tested on: Mycobacterium tuberculosis
- Protocol text: Antitubercular activity against Mycobacterium tuberculosis H37Rv RIF-R2 ATCC 35828 after 5 days
- Type: functional, organism-based
- Reported conditions: H37Rv RIF-R2 ATCC 35828, 120 h
Assignment: determine reported IC90 for the given molecules.
Numbers only, in µM.

// solved cases for IC90 follow
{"Smiles input": "NNC(=O)c1ccncc1", "IC90, µM": 0.6}
{"Smiles input": "COc1ccc(/C=C/C(C)=N/NC(N)=S)cc1OC", "IC90, µM": 5.9}
{"Smiles input": "COc1ccc(/C=C/C(C)=N/Nc2nc(-c3ccc(N)cc3)cs2)cc1OC", "IC90, µM": 9.2}

// query Param item = `C[C@H]1COc2c(N3CCN(C)CC3)c(F)cc3c(=O)c(C(=O)O)cn1c23.C[C@H]1COc2c(N3CCN(C)CC3)c(F)cc3c(=O)c(C(=O)O)cn1c23.O` ; retrieve measured IC90.
// result 1.2
